Conditions: 24 h
Would you mind labelling by AQ Solubility? At or over 90 mg/mL is condition met, under is condition not met.

Tell me whether AQ Solubility is at least 90 mg/mL here: CC[C@H](Nc1nc(NCc2cnc(C)cc2C)c2ncn(C(C)C)c2n1)[C@@H](C)O [Form M]
condition not met

Tell me whether AQ Solubility is at least 90 mg/mL here: CC[C@H](Nc1nc(NCc2cnc(C)cc2C)c2ncn(C(C)C)c2n1)[C@@H](C)O [Form L]
condition met

Tell me whether AQ Solubility is at least 90 mg/mL here: CC[C@H](Nc1nc(NCc2cnc(C)cc2C)c2ncn(C(C)C)c2n1)[C@@H](C)O [Form P]
condition not met

Tell me whether AQ Solubility is at least 90 mg/mL here: CC[C@H](Nc1nc(NCc2cnc(C)cc2C)c2ncn(C(C)C)c2n1)[C@@H](C)O [Form H]
condition not met

---

Test: Storage at 40° C./75% RH
Assay type: physicochemical
Conditions: 7 d

>  <compound>
CC[C@H](Nc1nc(NCc2cnc(C)cc2C)c2ncn(C(C)C)c2n1)[C@@H](C)O [Form I]

>  <40° C./75% RH, appearance>
Sticky solid

$$$$
>  <compound>
CC[C@H](Nc1nc(NCc2cnc(C)cc2C)c2ncn(C(C)C)c2n1)[C@@H](C)O [Form L]

>  <40° C./75% RH, appearance>
7 d - No change

$$$$
>  <compound>
CC[C@H](Nc1nc(NCc2cnc(C)cc2C)c2ncn(C(C)C)c2n1)[C@@H](C)O [Form M]

>  <40° C./75% RH, appearance>
Sticky solid

$$$$

---

Details: 24 h
reported_property: AQ Solubility

>  <compound>
CC[C@H](Nc1nc(NCc2cnc(C)cc2C)c2ncn(C(C)C)c2n1)[C@@H](C)O [Form I]

>  <reported_property>
AQ Solubility

>  <recorded_value>
> 79 mg/mL

$$$$
>  <compound>
CC[C@H](Nc1nc(NCc2cnc(C)cc2C)c2ncn(C(C)C)c2n1)[C@@H](C)O [Form J]

>  <reported_property>
AQ Solubility

>  <recorded_value>
> 30 mg/mL

$$$$

Returns the measured AQ Solubility for the input compound. Input: CC[C@H](Nc1nc(NCc2cnc(C)cc2C)c2ncn(C(C)C)c2n1)[C@@H](C)O [Form Q]
92 mg/mL
